Numbers sourced from ChEMBL document CHEMBL6120977.

In this section we review reported Drug uptake values for a set of compounds.
# measurementProtocol: Biodistribution in male ddY mouse spleen administered intravenously and measured at 2 mins postinjection by gamma counter analysis
# Assay type: ADME, organism-based
# conditionLabel: in vivo, iv
Please respond with the number in % ID/g and leave the unit unwritten.

INSERT INTO measurements (structuresmiles, units, valuereported) VALUES
  ('C[C@H]1CN(c2nc3ccc(F)cc3s2)CCCN1C(=O)c1cc([18F])ccc1-n1nccn1', '% ID/g', 2.15),
  ('Cc1ccc(-n2nccn2)c(C(=O)N2CCCN(c3nc4ccc([18F])cc4s3)C[C@@H]2C)c1', '% ID/g', 2.92);

Ask | Return reported Drug uptake; argument: Cc1ccc(-n2nccn2)c(C(=O)N2CCCN(c3nc4cc([18F])ccc4s3)C[C@@H]2C)c1
Reply | 4.4

Ask | Cool, now C[C@H]1CN(c2nc3ccccc3s2)CCCN1C(=O)c1cc([18F])ccc1-n1nccn1
Reply | 3.26
